- Assay text: NOD1 signaling inhibitors, primary screen, cell-based, luminescence, uHTS (AID 1578);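 note: HEK-293T reporter cells stimulated with the NOD1 agonist gamma-tri-DAP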
- Condition info: NOD1-driven NF-kB luciferase reporter cells, at 4 µM
Among all 290,000 compounds or so, about 3,000 (1%) were called active. Cut-off read from the data, not from the text of the source: active = inhibition mostly above about 36% (no sharp cut-off); inactive = mostly below about 34%. The sample as a whole holds a higher share of actives than the screen did.
Outcome codes: active, inactive

INSERT INTO measurements (molecule, group) VALUES
  ('O=C1N/C(=N\N=C\c2cccnc2)SC1Cc1ccc(SC(F)F)cc1 (stereo unspecified)', 'active'),
  ('CCOCCOC(=O)Cn1cnc2scc(-c3ccc(C)cc3)c2c1=O', 'inactive'),
  ('Clc1ccc(OCc2nn[nH]n2)cc1', 'inactive'),
  ('O=C(COc1ccc2ccc(=O)oc2c1)Nc1cccnc1', 'inactive'),
  ('COCCNC(=O)CCCC(=O)NCCOC', 'inactive'),
  ('CCc1cccc(NC(=O)CCS(=O)(=O)c2ccc3c(c2)NC(=O)CO3)c1', 'inactive'),
  ('COc1ccc(-c2cc(C(F)(F)F)nc(S(=O)(=O)CCCC(=O)Nc3cc(C)on3)n2)cc1OC', 'inactive'),
  ('COc1ccc(C(=O)N/C(=C\c2ccccc2)C(=O)Nc2ccc(C(=O)O)cc2)cc1', 'inactive'),
  ('Cc1nc(NCc2ccc3c(c2)OCO3)c2oc3ccccc3c2n1', 'inactive'),
  ('CCOC(=O)CNC(=O)C1Cc2ccccc2CN1S(=O)(=O)c1cccs1 (stereo unspecified)', 'inactive'),
  ('Cc1cc(NC(=O)CSc2nccn2C)n(-c2ccccc2)n1', 'inactive'),
  ('CC1=NN(c2cccc(C(=O)O)c2)C(=O)/C1=C\C=C\c1ccco1', 'inactive'),
  ('CC(C)Cc1nnc(NC(=O)CCC(=O)NC2CCCC2)s1', 'inactive'),
  ('COc1ccc(CNC(=O)c2ccc(C(C)(C)C)cc2)cc1', 'inactive'),
  ('CC1CCCN(C(=O)CCNS(=O)(=O)c2ccc3c(c2)oc(=O)n3C)C1 (stereo unspecified)', 'inactive'),
  ('CCOc1ccccc1NC(=O)C(C)CC (stereo unspecified)', 'inactive'),
  ('COc1cc(Cl)ccc1OCc1cc(C(=O)N(C)Cc2cccc3cnccc23)no1', 'inactive'),
  ('O=C(O)CC(C(=O)O)N1C(=O)/C(=C/C=C/c2ccco2)SC1=S (stereo unspecified)', 'inactive'),
  ('CCc1nc(NCc2ccc3c(c2)OCO3)c2oc3ccccc3c2n1', 'inactive'),
  ('O=c1c(=Nc2ccccc2O)c(=O)c2ccccc12', 'inactive'),
  ('COCCN1CCN(C(=O)C2CCC(=O)N(Cc3ccccc3F)C2)CC1 (stereo unspecified)', 'inactive'),
  ('Cc1cc(NC(=O)CCCS(=O)(=O)c2nc(-c3cccs3)cc(C(F)(F)F)n2)no1', 'active'),
  ('Cc1c(C)c2ccc(OCC(=O)Nc3cccnc3)cc2oc1=O', 'inactive'),
  ('Oc1ccc(Cc2ncc(C(F)(F)F)cc2Cl)cc1', 'inactive'),
  ('Nc1ncnc(NCc2ccccc2)c1[N+](=O)[O-]', 'inactive'),
  ('O=C(c1cnsn1)N1CCC(CO)(Cc2ccc(Cl)cc2)CC1', 'inactive'),
  ('O=C(O)CCCN1C(=O)/C(=C\c2ccco2)SC1=S', 'inactive'),
  ('COCc1[nH]nc2c1C(c1ccc(OC)c(OC)c1)C(C#N)=C(N)O2 (stereo unspecified)', 'inactive'),
  ('O=C(COc1ccc2ccc(=O)oc2c1)Nc1ccc(CCO)cc1', 'inactive'),
  ('CCC(c1nnc(SCC(=O)NC23CC4CC(CC(C4)C2)C3)o1)N(C)C (stereo unspecified)', 'inactive'),
  ('COc1ccccc1NC(=O)C(CCS(C)(=O)=O)N1C(=O)c2ccccc2C1=O (stereo unspecified)', 'inactive'),
  ('Cc1n[nH]c(C)c1CCNCc1ccc(OCC(O)CN2CCCCC2)cc1 (stereo unspecified)', 'inactive'),
  ('CCOc1ccc(S(=O)(=O)NCCSCc2ccco2)cc1', 'inactive'),
  ('CCC(C)(C)NC(=O)c1cc(S(=O)(=O)N2CCc3ccccc32)cn1C', 'inactive'),
  ('COc1cc(/C=C2\CCOC2=O)cc(OC)c1OC', 'inactive'),
  ('CCCCCCCC(=O)N/N=C(\C)c1cccnc1', 'inactive'),
  ('Cc1ccc(NC(=O)c2ccccc2N(C)S(=O)(=O)c2ccccc2)c(C)c1', 'inactive'),
  ('CCC(=O)c1ccc(OCC(=O)NC2(C#N)CCCCC2)cc1', 'inactive'),
  ('Cc1ccc(CNc2nc(N)c([N+](=O)[O-])c(NCc3ccccc3)n2)cc1', 'inactive'),
  ('CC(=O)c1cc2c(cc1NC(=O)CN1CCCCCCC1)OCO2', 'inactive'),
  ('O=C(c1ccc2c(Cl)c3c(nc2c1)CCCC3)N1CCC(N2CCCCC2)CC1', 'inactive'),
  ('Cc1cccc(Nc2ncnc(N)c2[N+](=O)[O-])n1', 'inactive'),
  ('Cc1c(NC(=O)c2ccc(N(Cc3ccccc3)S(C)(=O)=O)cc2)c(=O)n(-c2ccccc2)n1C', 'inactive'),
  ('CC(=O)Nc1nnc(/C=C/c2cccc([N+](=O)[O-])c2)s1', 'inactive'),
  ('COCCCNC(=O)C(=O)Nc1cc2c3c(c1)CCC(=O)N3CCC2', 'inactive'),
  ('CN(C)C(=O)CN1C(=O)NC2(CCCc3ccccc32)C1=O (stereo unspecified)', 'inactive');

###

- Assay text: NOD1 signaling inhibitors, primary screen, cell-based, luminescence, uHTS (AID 1578);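 note: HEK-293T reporter cells stimulated with the NOD1 agonist gamma-tri-DAP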
- Condition info: NOD1-driven NF-kB luciferase reporter cells, at 4 µM
About 3,000 (1%) of roughly 290,000 compounds were called active. No stated cut-off is given here; in the data, active means inhibition mostly above about 36% (no sharp cut-off); inactive means mostly below about 34%. Many of the other results were omitted from the sample, so actives are more common in it than they were.
Outcome codes: yes = active, no = inactive

INSERT INTO results (compound, group) VALUES
  ('CC(=O)N1c2ccccc2C(C)(C)C2CCC(C)CC21 (stereo unspecified)', 'no'),
  ('O=c1oc2ccccc2cc1-c1cn(-c2ccccc2)c(=S)[nH]1', 'yes'),
  ('COc1ccc(-c2cn(-c3ccccc3)c(=S)[nH]2)cc1OC', 'no'),
  ('NC(=O)COC(=O)C1CSC2(c3ccc(F)cc3)CCC(=O)N12 (stereo unspecified)', 'no'),
  ('Cc1ccc(-c2cn(-c3ccccc3)c(=S)[nH]2)cc1C', 'yes'),
  ('CCOc1ccccc1NC(=O)c1cc(C(=O)c2cc(Br)ccc2O)coc1=N', 'yes'),
  ('O=C(CCS(=O)(=O)c1cc2c(cc1Cl)NC(=O)CO2)NCc1ccccc1', 'yes'),
  ('O=C(CCS(=O)(=O)c1cc2c(cc1Cl)NC(=O)CO2)NCc1ccc(F)cc1', 'no'),
  ('CN1CCN(C(=S)c2cn(Cc3ccccc3F)c3ccccc23)CC1', 'no'),
  ('CCOC(=O)c1cc(C(=O)c2cc(Br)ccc2O)coc1=N', 'no'),
  ('Cc1ccccc1S(=O)(=O)Cc1ccc(C(=O)NCc2ccco2)o1', 'no');

###

- Assay text: NOD1 signaling inhibitors, primary screen, cell-based, luminescence, uHTS (AID 1578);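 note: HEK-293T reporter cells stimulated with the NOD1 agonist gamma-tri-DAP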
- Condition info: NOD1-driven NF-kB luciferase reporter cells, at 4 µM
Hit rate of the full screen: of about 290,000 compounds, about 3,000 (1%) were called active. Cut-off read from the data, not from the text of the source: active = inhibition mostly above about 36% (no sharp cut-off); inactive = mostly below about 34%. The entries come from a sample that favours actives as a whole.
Outcome codes: active, inactive

INSERT INTO results (compound, group) VALUES
  ('CCCCN=Cc1c(C)[nH]n(-c2ccccc2)c1=S', 'inactive'),
  ('Cc1ccc(Cn2nnc3c(=O)[nH]c(C4CCCN(S(=O)(=O)c5ccc(F)cc5)C4)nc32)cc1 (stereo not drawn)', 'inactive'),
  ('CN(C(=O)COC(=O)c1cc(S(=O)(=O)N2CCCCC2)ccc1N1CCOCC1)C1CCS(=O)(=O)C1 (stereo not drawn)', 'inactive'),
  ('CC(/C=C/c1ccccc1)=N\NC(=O)c1ccc(Br)cc1', 'inactive'),
  ('COc1ccc(CCNC(=O)CCn2c(SCC#N)nc3ccccc3c2=O)cc1OC', 'inactive'),
  ('N#CCOC(=O)[C@H](Cc1ccccc1)N1C(=O)c2ccccc2C1=O', 'inactive'),
  ('Cc1noc2ncnc(N3CCCC3)c12', 'inactive'),
  ('Cc1[nH]n(-c2ccccc2)c(=S)c1C=NCCCN=Cc1c(C)[nH]n(-c2ccccc2)c1=S', 'active'),
  ('Cc1ccc(-n2c3c(c(=O)[nH]c2=O)C(NS(=O)(=O)c2ccc(Cl)cc2)(C(F)(F)F)C(=O)N3)cc1 (stereo not drawn)', 'inactive'),
  ('O=C(Nc1cccc(Cl)c1)c1cc(N=Nc2ccc([N+](=O)[O-])cc2Cl)ccc1O', 'active'),
  ('Cc1noc2ncnc(N3CCN(c4ccc(F)cc4)CC3)c12', 'inactive'),
  ('CCCS(=O)(=O)Nc1cc(C(F)(F)F)ccc1OCCOC', 'inactive'),
  ('CCCCc1nc2ccc(S(=O)(=O)O)cc2[nH]1', 'inactive'),
  ('O=C(c1ccc(-c2nc3ccccc3s2)s1)N1CCOCC1', 'active'),
  ('CCc1cccc(C)c1NC(=O)C(c1ccccc1)N1CCC1=O (stereo not drawn)', 'inactive'),
  ('O=C(CSc1nnc(-c2ccccc2)n1-c1ccccc1)c1cccs1', 'inactive'),
  ('O=C(NC1CC1)c1ccc(-c2nc3ccccc3s2)s1', 'active'),
  ('COCCNC(=O)c1cc2cc3ccc(OC)cc3nc2o1', 'inactive'),
  ('CNC(=O)COC(=O)c1ccc(OCC(=O)Nc2ccccc2OC)c(OC)c1', 'inactive'),
  ('COc1ccc2cc3cc(C(=O)NCCC(C)C)oc3nc2c1', 'inactive'),
  ('Cc1[nH]n(-c2ccccc2)c(=O)c1C=NCCc1ccccc1', 'inactive'),
  ('CCN1CCN(C(=O)c2ccc(-c3nc4ccccc4s3)s2)CC1', 'inactive'),
  ('N#Cc1nc(COc2ccc(Cl)cc2Cl)oc1N1CCN(c2ccccc2)CC1', 'inactive');
